- protocol: Adhesion of cured material to PET film (cross-cut method, JIS K 5600-5-6)
- condition_details: UV-cured film on surface-untreated PET film, cross-cut 10×10
metric_name: Adhesion (segments remaining without peeling or damage in 100 segments)

Look up Adhesion (segments remaining without peeling or damage in 100 segments) for this compound: C=CC(=O)OCCOCCOC(=O)C=C [DEGDA, reference compound]
32/100

Look up Adhesion (segments remaining without peeling or damage in 100 segments) for this compound: C=CCOCC(=C)C(=O)[O-].C=CCOCC(=C)C(=O)[O-].[Zn+2]
100/100

Look up Adhesion (segments remaining without peeling or damage in 100 segments) for this compound: C=CC(=O)OCC(C)(C)COC(=O)C=C [NPGDA, reference compound]
49/100

Look up Adhesion (segments remaining without peeling or damage in 100 segments) for this compound: C=CC(=O)OCC(CC)(COC(=O)C=C)COC(=O)C=C [TMPTA, reference compound]
71/100

Look up Adhesion (segments remaining without peeling or damage in 100 segments) for this compound: C=CCOCC(=C)C(=O)[O-].C=CCOCC(=C)C(=O)[O-].C=CCOCC(=C)C(=O)[O-].[Al+3]
100/100

Look up Adhesion (segments remaining without peeling or damage in 100 segments) for this compound: C=CCOCC(=C)C(=O)[O-].C=CCOCC(=C)C(=O)[O-].[O]=[Zr+2]
100/100

Look up Adhesion (segments remaining without peeling or damage in 100 segments) for this compound: C=CCOCC(=C)C(=O)OCCOCCOC(=O)C(=C)COCC=C [DEG-AMA, reference compound]
85/100

Look up Adhesion (segments remaining without peeling or damage in 100 segments) for this compound: C=CCOCC(=C)C(=O)OCC(C)(C)COC(=O)C(=C)COCC=C [NPG-AMA, reference compound]
72/100

These entries and their values trace back to patent US9499466B2.
